- Measured target: recombinant human Mcl-1 (residues 171-327) / Bim interaction (Homo sapiens (Human), UniProt Q07820)
- Sequence (Q07820 171-327): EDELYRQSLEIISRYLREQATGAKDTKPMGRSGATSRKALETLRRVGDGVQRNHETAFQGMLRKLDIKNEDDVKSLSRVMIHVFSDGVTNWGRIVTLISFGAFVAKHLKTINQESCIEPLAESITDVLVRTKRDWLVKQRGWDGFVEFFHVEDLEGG
- Method: biochemical
- Format: binding
- Condition description: TR-FRET, Mcl-1(171-327) / biotin-Bim (51-76); read-out: Mcl-1 HTRF IC50
compounds and their reported IC50
Measurement name: IC50 (nM)

- Compound: "CO[C@@]1(c2cccc(F)n2)/C=C/C[C@H](C)[C@@H](C)S(=O)(=O)NC(=O)c2ccc3c(c2)N(C[C@@H]2CC[C@H]21)C[C@@]1(CCCc2cc(Cl)ccc21)CO3 (single isomer, unassigned)"
  Measurement name: "IC50"
  Readout number: 0.186
- Compound: "C#C[C@@]1(OCCN2CCOCC2)/C=C/C[C@H](C)[C@@H](C)S(=O)(=O)NC(=O)c2ccc3c(c2)N(C[C@@H]2CC[C@H]21)C[C@@]1(CCCc2cc(Cl)ccc21)CO3"
  Measurement name: "IC50"
  Readout number: 0.165
- Compound: "C[C@@H]1[C@@H](C)C/C=C/[C@@](O)(CS(C)(=O)=O)[C@@H]2CC[C@H]2CN2C[C@@]3(CCCc4cc(Cl)ccc43)COc3ccc(cc32)C(=O)NS1(=O)=O [Example 100072]"
  Measurement name: "IC50"
  Readout number: 0.451
- Compound: "C[C@@H]1[C@@H](C)C/C=C/[C@@](O)(C#CCCN2CCOCC2)[C@@H]2CC[C@H]2CN2C[C@@]3(CCCc4cc(Cl)ccc43)COc3ccc(cc32)C(=O)NS1(=O)=O (single isomer, unassigned) [Example 100017]"
  Measurement name: "IC50"
  Readout number: 0.039
- Compound: "C[C@@H]1[C@@H](C)CCC[C@](O)(CC(=S)N(C)C)[C@@H]2CC[C@H]2CN2C[C@@]3(CCCc4cc(Cl)ccc43)COc3ccc(cc32)C(=O)NS1(=O)=O (single isomer, unassigned) [Example 100173]"
  Measurement name: "IC50"
  Readout number: 0.539

----------
- Measured target: recombinant human Mcl-1 (residues 171-327) / Bim interaction (Homo sapiens (Human))
- Method: biochemical
- Format: binding
- Condition description: TR-FRET, Mcl-1(171-327) / biotin-Bim (51-76); read-out: Mcl-1 HTRF IC50
pIC50: −log10 of the molar value.
compounds and their reported pIC50

- Compound: "C[C@@H]1[C@@H](C)CCC[C@](O)(COCCN(C)C)[C@@H]2CC[C@H]2CN2C[C@@]3(CCCc4cc(Cl)ccc43)COc3ccc(cc32)C(=O)NS1(=O)=O (stereo in doubt) [Example 100196]"
  pIC50: 9.34
- Compound: "COC[C@]1(OC)CCC[C@H](C)[C@@H](C)S(=O)(=O)NC(=O)c2ccc3c(c2)N(C[C@@H]2CC[C@H]21)C[C@@]1(CCCc2cc(Cl)ccc21)CO3 [Example 100225]"
  pIC50: 9.19
- Compound: "CC(C)CO[C@]1(C=O)/C=C/C[C@H](C)[C@@H](C)S(=O)(=O)NC(=O)c2ccc3c(c2)N(C[C@@H]2CC[C@H]21)C[C@@]1(CCCc2cc(Cl)ccc21)CO3 [Example 100603]"
  pIC50: 9.19

----------
molecules and their reported pIC50
- Measured target: recombinant human Mcl-1 (residues 171-327) / Bim interaction (Homo sapiens (Human))
- Method: biochemical
- Assay type: binding
- Condition description: TR-FRET, Mcl-1(171-327) / biotin-Bim (51-76); read-out: Mcl-1 HTRF IC50
pIC50: −log10 of the molar value.

- Molecule: "C[C@H](C(=O)O)[C@@]1(O)/C=C/C[C@H](C)[C@@H](C)S(=O)(=O)NC(=O)c2ccc3c(c2)N(C[C@@H]2CC[C@H]21)C[C@@]1(CCCc2cc(Cl)ccc21)CO3 (single isomer, unassigned) [Example 100122]"
  pIC50: 10.01
- Molecule: "CO[C@]1(CCN(C)C)CCC[C@H](C)[C@@H](C)S(=O)(=O)NC(=O)c2ccc3c(c2)N(C[C@@H]2CC[C@H]21)C[C@@]1(CCCc2cc(Cl)ccc21)CO3"
  pIC50: 9.19
- Molecule: "C[C@@H]1[C@@H](C)CCC[C@@](O)(CCN2CC(F)(F)C2)[C@@H]2CC[C@H]2CN2C[C@@]3(CCCc4cc(Cl)ccc43)COc3ccc(cc32)C(=O)NS1(=O)=O [Example 100094]"
  pIC50: 8.42
- Molecule: "C[C@@H]1[C@@H](C)C/C=C/[C@@](O)([C@@H](C)C(=O)N(C)C)[C@@H]2CC[C@H]2CN2C[C@@]3(CCCc4cc(Cl)ccc43)COc3ccc(cc32)C(=O)NS1(=O)=O (single isomer, unassigned) [Example 100126]"
  pIC50: 9.74
- Molecule: "C[C@@H]1[C@@H](C)C/C=C/[C@@](O)(C#CCCN(C)C)[C@@H]2CC[C@H]2CN2C[C@@]3(CCCc4cc(Cl)ccc43)COc3ccc(cc32)C(=O)NS1(=O)=O [Example 100308]"
  pIC50: 10.48
- Molecule: "C[C@@H]1[C@@H](C)CCC[C@@](O)(C[C@H]2CCCN(C)C2)[C@@H]2CC[C@H]2CN2C[C@@]3(CCCc4cc(Cl)ccc43)COc3ccc(cc32)C(=O)NS1(=O)=O (single isomer, unassigned)"
  pIC50: 9.21
- Molecule: "CO[C@@]1(c2cncnc2)/C=C/C[C@H](C)[C@@H](C)S(=O)(=O)NC(=O)c2ccc3c(c2)N(C[C@@H]2CC[C@H]21)C[C@@]1(CCCc2cc(Cl)ccc21)CO3"
  pIC50: 9.41
- Molecule: "C[C@@H]1[C@@H](C)CCC[C@@](O)(CCN2CCCCC2)[C@@H]2CC[C@H]2CN2C[C@@]3(CCCc4cc(Cl)ccc43)COc3ccc(cc32)C(=O)NS1(=O)=O [Example 100092]"
  pIC50: 8.40
- Molecule: "CCOP(=O)(OCC)C(F)(F)[C@]1(O)/C=C/C[C@H](C)[C@@H](C)S(=O)(=O)NC(=O)c2ccc3c(c2)N(C[C@@H]2CC[C@H]21)C[C@@]1(CCCc2cc(Cl)ccc21)CO3 [Example 100068]"
  pIC50: 8.36
- Molecule: "C[C@@H]1[C@@H](C)C/C=C/[C@@](O)(C#CCN2CCCCC2)[C@@H]2CC[C@H]2CN2C[C@@]3(CCCc4cc(Cl)ccc43)COc3ccc(cc32)C(=O)NS1(=O)=O [Example 100424]"
  pIC50: 9.60

----------
- Measured target: recombinant human Mcl-1 (residues 171-327) / Bim interaction (Homo sapiens (Human), UniProt Q07820)
- Method: biochemical
- Format: binding
- Condition description: TR-FRET, Mcl-1(171-327) / biotin-Bim (51-76); read-out: Mcl-1 HTRF IC50
pIC50: −log10 of the molar value.
compounds and their reported pIC50
Measurement name: pIC50

- Compound: "CO[C@@]1(C[C@@H](O)C2CC2)/C=C/C[C@H](C)[C@@H](C)S(=O)(=O)NC(=O)c2ccc3c(c2)N(C[C@@H]2CC[C@H]21)C[C@@]1(CCCc2cc(Cl)ccc21)CO3 (single isomer, unassigned) [Example 100460]"
  Readout number: 10.02
- Compound: "C[C@@H]1[C@@H](C)C/C=C/[C@](O)(C#CCC2CCOCC2)[C@@H]2CC[C@H]2CN2C[C@@]3(CCCc4cc(Cl)ccc43)COc3ccc(cc32)C(=O)NS1(=O)=O [Example 100433]"
  Readout number: 10.59
- Compound: "C[C@@H]1[C@@H](C)CCC[C@](O)(C[C@@H]2CCCN(C)C2)[C@@H]2CC[C@H]2CN2C[C@@]3(CCCc4cc(Cl)ccc43)COc3ccc(cc32)C(=O)NS1(=O)=O (single isomer, unassigned) [Example 100400]"
  Readout number: 9.08
- Compound: "COC[C@]1(O)/C=C/C[C@H](C)[C@@H](C)S(=O)(=O)NC(=O)c2ccc3c(c2)N(C[C@@H]2CC[C@H]21)C[C@@]1(CCCc2cc(Cl)ccc21)CO3 [Example 100378]"
  Readout number: 10.43
- Compound: "C[C@@H]1[C@@H](C)C/C=C/[C@@](O)(COCCN2CCOCC2)[C@@H]2CC[C@H]2CN2C[C@@]3(CCCc4cc(Cl)ccc43)COc3ccc(cc32)C(=O)NS1(=O)=O [Example 100355]"
  Readout number: 9.27

----------
compounds and their reported IC50
- Measured target: recombinant human Mcl-1 (residues 171-327) / Bim interaction (Homo sapiens (Human), UniProt Q07820)
- Method: biochemical
- Format: binding
- Condition description: TR-FRET, Mcl-1(171-327) / biotin-Bim (51-76); read-out: Mcl-1 HTRF IC50

- Compound: "C[C@@H]1[C@@H](C)C/C=C/[C@](O)(c2cnccc2F)[C@@H]2CC[C@H]2CN2C[C@@]3(CCCc4cc(Cl)ccc43)COc3ccc(cc32)C(=O)NS1(=O)=O (stereo in doubt) [Example 100537]"
  IC50 [nM]: 0.115
- Compound: "C[C@@H]1[C@@H](C)C/C=C/[C@@](O)(CC(=O)N(C)C)[C@@H]2CC[C@H]2CN2C[C@@]3(CCCc4cc(Cl)ccc43)COc3ccc(cc32)C(=O)NS1(=O)=O [Example 100077]"
  IC50 [nM]: 0.19
- Compound: "C[C@@H]1[C@@H](C)CCC[C@@](O)(Cc2ccccn2)[C@@H]2CC[C@H]2CN2C[C@@]3(CCCc4cc(Cl)ccc43)COc3ccc(cc32)C(=O)NS1(=O)=O [Example 100104]"
  IC50 [nM]: 0.599
- Compound: "CO[C@@]1(CCCO)/C=C/C[C@H](C)[C@@H](C)S(=O)(=O)NC(=O)c2ccc3c(c2)N(C[C@@H]2CC[C@H]21)C[C@@]1(CCCc2cc(Cl)ccc21)CO3 [Example 100178]"
  IC50 [nM]: 0.432
- Compound: "CO[C@@]1(CC(=O)[C@H](C)CN(C)C)/C=C/C[C@H](C)[C@@H](C)S(=O)(=O)NC(=O)c2ccc3c(c2)N(C[C@@H]2CC[C@H]21)C[C@@]1(CCCc2cc(Cl)ccc21)CO3 (single isomer, unassigned) [Example 100478]"
  IC50 [nM]: 3.47
- Compound: "CO[C@]1(C2SCCCS2)/C=C/[C@H](C)[C@H](C)CS(=O)(=O)NC(=O)c2ccc3c(c2)N(C[C@@H]2CC[C@H]21)C[C@@]1(CCCc2cc(Cl)ccc21)CO3 [Example 100569]"
  IC50 [nM]: 2.48
- Compound: "CC[C@@H]1CC/C=C/[C@@](OC)(C2SCCCS2)[C@@H]2CC[C@H]2CN2C[C@@]3(CCCc4cc(Cl)ccc43)COc3ccc(cc32)C(=O)NS1(=O)=O (single isomer, unassigned) [Example 100579]"
  IC50 [nM]: 0.214
- Compound: "COCC[C@@H]1[C@@H](C)C/C=C/[C@@](O)(C2SCCCS2)[C@@H]2CC[C@H]2CN2C[C@@]3(CCCc4cc(Cl)ccc43)COc3ccc(cc32)C(=O)NS1(=O)=O [Example 100513]"
  IC50 [nM]: 0.071
- Compound: "CN[C@@H]1C[C@H](C)[C@@H](C)S(=O)(=O)NC(=O)c2ccc3c(c2)N(C[C@@H]2CC[C@H]2[C@@](C)(O)C1)C[C@@]1(CCCc2cc(Cl)ccc21)CO3 [Example 100065]"
  IC50 [nM]: 4.85
- Compound: "C[C@@H]1[C@@H](C)C/C=C/[C@](O)(c2cnccn2)[C@@H]2CC[C@H]2CN2C[C@@]3(CCCc4cc(Cl)ccc43)COc3ccc(cc32)C(=O)NS1(=O)=O [Example 100383]"
  IC50 [nM]: 0.264

Where do the numbers come from? From patent US10821115B2.
